Provide the recorded protein stability index for the entries that follow.
B1: ZNF24 (parent)
chain: YGETCFPKGRFERKRNPSRKKQHI

variants of: B1; experiment: protein stability index of a GFP-peptide fusion (GPS, HEK-293T) (PSI 1-6); higher = more stable; details: c terminus: a fixed tail appended;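 note: lentivirally expressed fusions sorted by FACS into six bins by GFP to DsRed ratio, PSI derived from sequencing read proportions per bin multiplied by bin number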

Task: What value of measured protein stability index is listed for "F11H" ?
Result: 3.05

Task: What value of measured protein stability index is listed for "E3N" ?
Result: 1.95

Task: What value of measured protein stability index is listed for "E12M" ?
Result: 1.87

Task: What value of measured protein stability index is listed for "F11I" ?
Result: 2.59

Task: What value of measured protein stability index is listed for "E12H" ?
Result: 3.09

Task: What value of measured protein stability index is listed for "P7D" ?
Result: 3.5

Task: What value of measured protein stability index is listed for "P7S" ?
Result: 2.28

Task: What value of measured protein stability index is listed for "K8P" ?
Result: 2.11

Task: What value of measured protein stability index is listed for "T4G" ?
Result: 2.33

Task: What value of measured protein stability index is listed for "E3P" ?
Result: 2.54

Task: What value of measured protein stability index is listed for "G9R" ?
Result: 2.85

Task: What value of measured protein stability index is listed for "S18G" ?
Result: 3.53

Task: What value of measured protein stability index is listed for "S18V" ?
Result: 2.62

Task: What value of measured protein stability index is listed for "F6W" ?
Result: 1.77

Task: What value of measured protein stability index is listed for "R15C" ?
Result: 2.65

Task: What value of measured protein stability index is listed for "K20M" ?
Result: 2.08

Task: What value of measured protein stability index is listed for "K21Q" ?
Result: 2.59

Task: What value of measured protein stability index is listed for "I24V" ?
Result: 3

Task: What value of measured protein stability index is listed for "S18K" ?
Result: 3.1

Task: What value of measured protein stability index is listed for "Q22W" ?
Result: 2.25

Task: What value of measured protein stability index is listed for "R10L" ?
Result: 2.67

Task: What value of measured protein stability index is listed for "K21C" ?
Result: 2.45
